- Tested on: murine DNA 5-C-MTase
- procedure summary: Methylation assay: methyl transfer from [methyl-3H]AdoMet to ODNs by DNA methyltransferase from Friend erythroleukemia cell nuclei
- Assay type: biochemical
- conditions: Table 2; enzyme preparation from Friend leukemia cells; 1 μg oligomer; average of 2 expts; background 2691
reported property: DNA METHYLASE SUBSTRATE ACTIVITY, ACTIVITY (CPM)

5' ATTGNGCATTCNGGATCNGNGATC 3' (5-methylcytosine at 5, 12, 18, 20, further chemistry not given here) [M1, AS with 5-methylcytosine (N) at 5, 12, 18, 20 (all CpG sites)]	5487 CPM
5' ATTGCGCATTCCGGATCCGCGATC 3' (chemistry not given here) [AS, unmethylated antisense single-stranded 24mer ODN]	12341 CPM
5' ATTGCGNATTNCGGATNCGCGATC 3' (5-methylcytosine at 7, 11, 17, further chemistry not given here) [M2, AS with 5-methylcytosine (N) at 7, 11, 17 (non-CpG sites)]	882284 CPM

Please look at the following substance next.
QUERY: Value wanted: DNA METHYLASE SUBSTRATE ACTIVITY, ACTIVITY (CPM) (murine DNA 5-C-MTase) of entry 3' TAACGCGTAAGGCCTAGGCGCTAG 5' (chemistry not given here; listed 3' to 5') [unmethylated sense single-stranded 24mer ODN]
RESULT: 4843 CPM
